Biological target: recombinant human SIRPα variant 1 protein (human) (UniProt P78324)
Sequence (P78324 31-370, change not shown): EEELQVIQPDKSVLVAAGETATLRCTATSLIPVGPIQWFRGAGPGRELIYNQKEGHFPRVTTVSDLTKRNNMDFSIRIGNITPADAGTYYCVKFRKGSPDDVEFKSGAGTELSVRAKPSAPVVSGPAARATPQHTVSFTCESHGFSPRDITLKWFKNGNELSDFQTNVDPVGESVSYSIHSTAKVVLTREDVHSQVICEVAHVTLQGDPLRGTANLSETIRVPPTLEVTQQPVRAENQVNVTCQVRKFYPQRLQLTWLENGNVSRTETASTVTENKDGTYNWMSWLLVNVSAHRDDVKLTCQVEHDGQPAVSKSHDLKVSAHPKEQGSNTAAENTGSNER
Assay: SPR Biacore 8K, antibody captured, antigen analyte
readout: koff

In: So what does the record say about koff for 248G3F6 (antibody, V domains shown) VH: EVQLQQSGAELVKPGASVKLSCTASGFNFEDTYMHWVKQRPDQGLEWIGRIDPADGDTKYNPKFQDKATITVDTSSNTAYLQLSSLTSEDTAVYYCVRGNYVNWGQGTTLTVSS VL: QIVLIQSPAIMSASPGERVTLTCRASSSVSSSYLYWYQQKPGSSPKLWIYSTSNLASGVPARFSGSGSGTSYSLTISSMEAEDAASYFCHQWYSYPRTFGGGTKLEIK ?
Out: 0.000374 s⁻¹
